Assay read-out IC50; system under study: Sodium-dependent serotonin transporter (Homo sapiens, UniProt P31645).
Sequence (P31645 whole entry): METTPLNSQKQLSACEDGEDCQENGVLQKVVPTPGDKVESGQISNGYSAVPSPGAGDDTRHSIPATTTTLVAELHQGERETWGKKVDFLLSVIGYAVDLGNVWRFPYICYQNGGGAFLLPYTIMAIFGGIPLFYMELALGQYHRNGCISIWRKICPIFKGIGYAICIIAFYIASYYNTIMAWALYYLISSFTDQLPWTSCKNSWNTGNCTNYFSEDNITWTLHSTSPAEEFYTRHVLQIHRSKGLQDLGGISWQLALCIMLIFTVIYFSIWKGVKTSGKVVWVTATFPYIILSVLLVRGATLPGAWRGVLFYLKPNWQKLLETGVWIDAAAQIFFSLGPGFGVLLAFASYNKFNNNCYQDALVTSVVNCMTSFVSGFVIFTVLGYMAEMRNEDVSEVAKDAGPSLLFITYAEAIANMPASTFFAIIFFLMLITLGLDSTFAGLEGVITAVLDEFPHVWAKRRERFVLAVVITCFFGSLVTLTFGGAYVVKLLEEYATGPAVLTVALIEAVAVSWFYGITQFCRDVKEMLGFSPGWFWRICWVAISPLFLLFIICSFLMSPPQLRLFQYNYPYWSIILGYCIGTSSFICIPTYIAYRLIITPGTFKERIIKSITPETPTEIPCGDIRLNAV

Some entries whose results are on file:
molecule="Fc1cccc(OC(CC2CNC2)c2ccc(Cl)c(F)c2)c1 (configuration not stated)" obs_value="36.6 nM"
molecule="Cc1ccc(OC(CC2CNC2)c2ccc(Cl)c(F)c2)cc1 (configuration not stated)" obs_value="38.5 nM"
molecule="Fc1ccccc1OC(CC1CNC1)c1ccc(Cl)c(Cl)c1 (configuration not stated)" obs_value="73.8 nM"
molecule="Fc1cc(C(CC2CNC2)Oc2ccccc2Cl)ccc1Cl (configuration not stated)" obs_value="37.5 nM"

Measured IC50, Fc1cc(C(CC2CNC2)Oc2ccccc2)ccc1Cl (configuration not stated) : 51.3 nM

Input Fc1cc(C(CC2CNC2)Oc2ccccc2F)ccc1Cl (configuration not stated) . Output IC50: 46.3 nM

// Cc1cccc(OC(CC2CNC2)c2ccc(Cl)c(F)c2)c1 (configuration not stated) : IC50 value = 23 nM

Form: molecule = Fc1ccc(OC(CC2CNC2)c2ccc(Cl)c(Cl)c2)cc1 (configuration not stated) ; IC50 = 71.9 nM

response.value for Cc1ccccc1OC(CC1CNC1)c1ccc(Cl)c(F)c1 (configuration not stated) (field: IC50) = 37.7 nM

Kindly note the recorded IC50 for Fc1cc(C(CC2CNC2)Oc2cccc(Cl)c2)ccc1Cl (configuration not stated) , which is 47.1 nM

Measured IC50 of Fc1ccc(OC(CC2CNC2)c2ccc(Cl)c(F)c2)cc1 (configuration not stated) : 58.1 nM

Record summary for Clc1ccc(C(CC2CNC2)Oc2ccccc2)cc1Cl (configuration not stated) : reported IC50 = 83.4 nM

----------
Listed here: compounds with reported IC50 for Sodium-dependent dopamine transporter (Homo sapiens, UniProt Q01959).
Report only the number, with the unit nM understood.

The reported IC50 value, Sodium-dependent dopamine transporter (Homo sapiens, UniProt Q01959), for Fc1cccc(OC(CC2CNC2)c2ccc(Cl)c(F)c2)c1 (stereo not drawn) reads 35.6

Observed IC50 on Sodium-dependent dopamine transporter (Homo sapiens, UniProt Q01959), entry Fc1ccc(OC(CC2CNC2)c2ccc(Cl)c(F)c2)cc1 (stereo not drawn) , equals 143

Sodium-dependent dopamine transporter (Homo sapiens, UniProt Q01959) assay, compound Fc1cc(C(CC2CNC2)Oc2cccc(Cl)c2)ccc1Cl (stereo not drawn) , recorded IC50 = 82.5

Entry Fc1cc(C(CC2CNC2)Oc2ccccc2)ccc1Cl (stereo not drawn) ; assay system Sodium-dependent dopamine transporter (Homo sapiens, UniProt Q01959); IC50 recorded at 33.1

Measured IC50 for this entry Fc1ccccc1OC(CC1CNC1)c1ccc(Cl)c(Cl)c1 (stereo not drawn) on Sodium-dependent dopamine transporter (Homo sapiens, UniProt Q01959): 53.6

Given the compound Fc1cc(C(CC2CNC2)Oc2ccccc2F)ccc1Cl (stereo not drawn) and test system Sodium-dependent dopamine transporter (Homo sapiens, UniProt Q01959), the measured IC50 is 63.9

Recorded IC50 for Cc1ccc(OC(CC2CNC2)c2ccc(Cl)c(F)c2)cc1 (stereo not drawn) on Sodium-dependent dopamine transporter (Homo sapiens, UniProt Q01959) was 110

# lookup: Fc1ccc(OC(CC2CNC2)c2ccc(Cl)c(Cl)c2)cc1 (stereo not drawn) on Sodium-dependent dopamine transporter (Homo sapiens, UniProt Q01959), IC50 = 129

----------
- TARGET ENTITY: Cytochrome P450 2C19 (Homo sapiens, UniProt P33261)
- Sequence (P33261 whole entry): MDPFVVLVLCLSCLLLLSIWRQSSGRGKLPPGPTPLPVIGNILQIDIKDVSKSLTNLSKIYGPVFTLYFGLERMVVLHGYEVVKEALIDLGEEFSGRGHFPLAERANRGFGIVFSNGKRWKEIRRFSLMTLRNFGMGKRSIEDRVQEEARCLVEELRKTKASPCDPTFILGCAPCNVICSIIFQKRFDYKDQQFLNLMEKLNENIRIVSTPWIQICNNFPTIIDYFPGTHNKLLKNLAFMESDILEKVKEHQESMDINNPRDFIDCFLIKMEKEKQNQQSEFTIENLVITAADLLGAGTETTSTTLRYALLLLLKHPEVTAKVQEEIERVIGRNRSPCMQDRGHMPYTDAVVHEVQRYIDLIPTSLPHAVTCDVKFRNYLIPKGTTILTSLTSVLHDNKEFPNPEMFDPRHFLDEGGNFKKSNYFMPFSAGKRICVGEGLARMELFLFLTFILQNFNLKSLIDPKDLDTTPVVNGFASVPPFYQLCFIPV
This section presents molecules with their documented IC50 values.

For record Fc1ccc(OC(CC2CNC2)c2ccc(Cl)c(F)c2)cc1 (centres undefined) the listed IC50 is 1300 nM

So, Fc1cc(C(CC2CNC2)Oc2cccc(Cl)c2)ccc1Cl (centres undefined) ? Its IC50 was 250 nM

Per the record, Fc1cc(C(CC2CNC2)Oc2ccccc2F)ccc1Cl (centres undefined) has IC50 of 250 nM

The molecule identified as Fc1cccc(OC(CC2CNC2)c2ccc(Cl)c(F)c2)c1 (centres undefined) registered its IC50 at 210 nM
